# System: Chenopodium album
# procedureDetails: Test Example 3: herbicidal effect test by treatment of dry field farming soil (one day after seeding)
# Type: in vivo
# statedConditions: 120 g/10a active ingredient, evaluated 14 days after treatment
What herbicidal rate, Chenopodium album was measured for each of the following?
Give bare numbers, in %.

// known answers, use as guide
>  <molecule>
COCC(C)n1oc(=O)c(Cc2ccccc2N(C(=O)OC)S(=O)(=O)C(F)(F)F)c1C (stereo not shown)

>  <herbicidal rate, Chenopodium album [%]>
90

$$$$
>  <molecule>
Cc1c(Cc2ccccc2N(S(=O)(=O)C(F)(F)F)S(=O)(=O)C(F)(F)F)c(=O)on1C(c1ccccc1)C(C)C (stereo not shown)

>  <herbicidal rate, Chenopodium album [%]>
80

$$$$
>  <molecule>
CCS(=O)(=O)N(c1ccccc1Cc1c(C)n(CCSC)oc1=O)S(=O)(=O)C(F)(F)F

>  <herbicidal rate, Chenopodium album [%]>
90

$$$$

Would you mind listing herbicidal rate, Chenopodium album for each of the following molecules?
1. COCCOC(=O)N(c1ccccc1Cc1c(C)n(C(C)c2ccccc2)oc1=O)S(=O)(=O)C(F)(F)F (stereo not shown)
2. Cc1c(Cc2ccccc2NS(=O)(=O)C(F)(F)F)c(=O)on1C(C)C
3. CCOC(=O)N(c1ccccc1Cc1c(C)n(C(C)(C)C)oc1=O)S(=O)(=O)C(F)(F)F
4. Cc1c(Cc2ccccc2N(S(C)(=O)=O)S(=O)(=O)C(F)(F)F)c(=O)on1Cc1ccc(F)cc1

Output:
1. 90
2. 100
3. 90
4. 70

Data credit: patent US11109593B2
